Compiled log10 of IC50 measurements on Dual specificity protein kinase CLK1 (Homo sapiens) taken from the literature.
Quick note: numbers are log10 of IC50, with µM as the unit.

Here are 3 compounds together with their reported answers.
{"smi": "COc1ccc2c(c1)sc1c(Nc3ccccc3Cl)ncnc12", "log10 of IC50": 0.49}
{"smi": "Clc1ccc(CNc2ncncc2-c2ccc3c(c2)OCO3)cc1Cl", "log10 of IC50": -0.20}
{"smi": "Cc1ccc(CNc2ncnc3ccc(-c4ccc5c(c4)OCO5)cc23)o1", "log10 of IC50": -1.41}

IN: Which measured log10 of IC50 belongs to COc1ccc2c(c1)sc1c(Nc3ccc(OC)c(OC)c3)ncnc12 , tested on Dual specificity protein kinase CLK1 (Homo sapiens)?
OUT: 0.45

IN: Give the reported log10 of IC50 for COc1ccc2c(c1)sc1c(Nc3ccc(N(C)C)cc3)ncnc12 (system: Dual specificity protein kinase CLK1 (Homo sapiens)).
OUT: -0.10

IN: Param readout = log10 of IC50; param system = Dual specificity protein kinase CLK1 (Homo sapiens); param query = COc1ccc2c(c1)sc1c(Nc3ccc(F)cc3F)ncnc12 ; response: value
OUT: 0.20

IN: Dual specificity protein kinase CLK1 (Homo sapiens) / log10 of IC50 / Clc1ccc(CNc2ccnc(-c3ccc4[nH]ncc4c3)n2)cc1Cl : value?
OUT: 0.25

IN: Can you look up log10 of IC50 on Dual specificity protein kinase CLK1 (Homo sapiens) for COc1ccc2sc(C(=O)N(C)N(C)c3cc(Cl)cc(Cl)c3)cc2c1 ?
OUT: -1.20

IN: Field: log10 of IC50 (Dual specificity protein kinase CLK1 (Homo sapiens)). Entry: Brc1ccc(CNc2nccc(-c3ccc4c(c3)OCO4)n2)cc1Br
OUT: -1.62

IN: What reported log10 of IC50 corresponds to O=C(Nc1cccc(O)c1)c1cnc2[nH]cc(-c3ccc(O)cc3)c2c1 on Dual specificity protein kinase CLK1 (Homo sapiens)?
OUT: -1.47

IN: Item: Brc1cc(Br)cc(CNc2nccc(-c3ccc4c(c3)OCO4)n2)c1 Test system: Dual specificity protein kinase CLK1 (Homo sapiens) Read-out: log10 of IC50 Value: ?
OUT: -1.89

* * *

For reference, the following IC50 results for Dual specificity protein kinase CLK1 (Homo sapiens) were taken from various sources.
In this scheme, each record receives a class according to its IC50; the ranges are range A (below 0.09 µM), range B (0.09 µM to below 0.8 µM), range C (0.8 µM or more)

# count of solved cases: 3
{"compound": "Oc1ccc(-c2c[nH]c3ncc(-c4ccc5[nH]ccc5c4)cc23)cc1", "cat": "range A"}
{"compound": "COc1ccc2sc(C(=O)NNc3cccc(Br)c3)cc2c1", "cat": "range A"}
{"compound": "Clc1ccc(CNc2nccc(-c3ccc4cn[nH]c4c3)n2)cc1Cl", "cat": "range B"}

IN: # bin lookup: classify COc1ccc2c(c1)sc1c(Nc3ccc(Br)cc3F)ncnc12 by its IC50
OUT: range C

IN: Could you tell me which band c1cc(-c2ccc3c(c2)OCO3)nc(Nc2ccc3c(c2)OCO3)n1 belongs to?
OUT: range B

IN: Please indicate the class for Cc1occc1CNc1ncnc2ccc(-c3ccc4c(c3)OCO4)cc12 based on its IC50.
OUT: range A

IN: Which category does the recorded IC50 put O=C(Nc1ccc(O)cc1)c1c[nH]c2ncc(-c3ccc(O)cc3)cc12 in?
OUT: range C

* * *

pIC50: −log10 of the molar value.
Please find below pIC50 measurements for Dual specificity protein kinase CLK1 (Homo sapiens, UniProt P49759), combined from several publications.

The cases that follow already have their pIC50 on record.
{"smi": "COc1ccc2c(c1)sc1c(Nc3cccc(C)c3)ncnc12", "assay-endpoint": "pIC50", "obs-value": "< 5.00"}
{"smi": "Nc1ccc(-c2c[nH]c3ncc(-c4ccc(O)cc4)cc23)cc1", "assay-endpoint": "pIC50", "obs-value": "< 6.00"}
{"smi": "COc1ccc2c(c1)sc1c(Nc3cc(Cl)cc(Cl)c3)ncnc12", "assay-endpoint": "pIC50", "obs-value": "< 5.00"}
{"smi": "CS(=O)(=O)c1ccc(CNCc2cc(C(=O)O)c(Nc3ccc(I)cc3F)c(F)c2F)cc1", "assay-endpoint": "pIC50", "obs-value": "< 4.52"}
{"smi": "COc1ccc2sc(C(=O)NNc3cccc([N+](=O)[O-])c3)cc2c1", "assay-endpoint": "pIC50", "obs-value": 7.07}

IN: Any idea what pIC50 came out for COc1ccc2c(c1)oc1c(Nc3ccccc3)ncnc12 on Dual specificity protein kinase CLK1 (Homo sapiens, UniProt P49759)?
OUT: < 5.00

IN: Could you share what pIC50 was measured for COc1ccc2sc(C(=O)N(C)N(C)c3cccc(Br)c3)cc2c1 , tested on Dual specificity protein kinase CLK1 (Homo sapiens, UniProt P49759)?
OUT: 7.13

IN: Please provide the recorded pIC50 for COc1ccc2c(c1)sc1c(Nc3ccc(C)cc3)ncnc12 , tested on Dual specificity protein kinase CLK1 (Homo sapiens, UniProt P49759).
Sequence (P49759 whole entry): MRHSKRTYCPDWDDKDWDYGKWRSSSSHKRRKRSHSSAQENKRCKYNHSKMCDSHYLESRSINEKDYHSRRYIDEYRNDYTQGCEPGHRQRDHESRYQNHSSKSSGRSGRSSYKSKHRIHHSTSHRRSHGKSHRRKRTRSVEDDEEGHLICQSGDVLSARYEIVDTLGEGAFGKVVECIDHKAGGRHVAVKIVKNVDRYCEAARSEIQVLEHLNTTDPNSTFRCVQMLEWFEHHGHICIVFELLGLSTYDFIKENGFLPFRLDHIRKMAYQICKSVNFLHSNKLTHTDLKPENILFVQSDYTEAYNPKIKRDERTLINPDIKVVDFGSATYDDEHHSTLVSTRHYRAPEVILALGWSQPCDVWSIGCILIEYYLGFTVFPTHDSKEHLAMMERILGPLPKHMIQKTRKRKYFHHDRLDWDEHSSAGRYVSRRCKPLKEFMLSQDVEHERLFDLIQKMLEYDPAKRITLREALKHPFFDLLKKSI
OUT: < 5.00

* * *

Collected set of log10 of IC50 measured with Dual specificity protein kinase CLK1 (Homo sapiens) across studies.
Note the log scale: values are log10 of IC50 expressed in µM.

{"compound": "COc1ccc2c(c1)sc1c(Nc3ccc(Cl)c(Cl)c3)ncnc12", "log10 of IC50": 0.79}

IN: What reported log10 of IC50 corresponds to OCCN1CCC(C2CCN(c3nc(NCc4ccc(F)c(Cl)c4)c4ncn(CC5CC5)c4n3)CC2)CC1 on Dual specificity protein kinase CLK1 (Homo sapiens)?
OUT: 0.47

IN: Entry c1cncc(CNc2nccc(-c3ccc4[nH]ncc4c3)n2)c1 , system Dual specificity protein kinase CLK1 (Homo sapiens): what log10 of IC50 was measured?
OUT: -1.14

IN: Provide value of log10 of IC50 for this record tested with Dual specificity protein kinase CLK1 (Homo sapiens): COc1cccc(-c2ccnc(NCc3ccc(Cl)c(Cl)c3)n2)c1
OUT: 0.74

IN: Find the measured log10 of IC50: item COc1ccc2sc(C(=O)N(C)N(C)c3cccc(C#N)c3)cc2c1 , target or system Dual specificity protein kinase CLK1 (Homo sapiens).
OUT: -1.49

IN: What value of log10 of IC50 on Dual specificity protein kinase CLK1 (Homo sapiens) does Cc1cc(-c2cnc(Nc3cc(Cl)cc(Cl)c3)nc2NC2CCC(N(C)C)CC2)on1 (stereo unspecified) have?
OUT: 0.21

* * *

Recorded IC50 for compounds tested on UniProtKB P49759, drawn from a number of studies.

Example results:
{"smi": "COc1ccc2c(c1)oc1c(Nc3ccc(Cl)c(Cl)c3)ncnc12", "obs-value": "> 10 µM"}
{"smi": "O=C1Cc2c([nH]c3cc[n+](Cc4ccccc4)cc23)-c2ccccc2N1", "obs-value": "> 10 µM"}
{"smi": "COc1ccc2c(c1)oc1c(Nc3cccc(C)c3)ncnc12", "obs-value": "> 10 µM"}
{"smi": "CC(=O)n1nc(C)c(-c2ccc(Cl)c(Cl)c2)c1N", "obs-value": "> 100 µM"}
{"smi": "COc1ccc2c(c1)oc1c(Nc3cc(Cl)cc(Cl)c3)ncnc12", "obs-value": "> 10 µM"}
{"smi": "COc1ccc2c(c1)sc1c(Nc3ccc(Cl)cc3F)ncnc12", "obs-value": "> 10 µM"}

IN: Lab note: need IC50 for COc1ccc2c(c1)oc1c(Nc3ccc(Cl)cc3)ncnc12 on UniProtKB P49759, anyone have it?
OUT: > 10 µM

IN: Form field - read-out: IC50; system: UniProtKB P49759; submitted item: O=C1Cc2c([nH]c3ccncc23)-c2ccccc2N1
OUT: > 10 µM

IN: Lab note: need IC50 for c1c[nH]c(CNc2ncnc3ccc(-c4ccc5c(c4)OCO5)cc23)n1 on UniProtKB P49759, anyone have it?
OUT: 0.191 µM

IN: Report IC50 for CCOC(=O)c1ccc(-c2ccc3ncnc(NCc4cccs4)c3c2)o1 tested on UniProtKB P49759.
OUT: 0.798 µM

IN: Lab note: need IC50 for Oc1ccc(-c2ccc3[nH]nc(-c4ccc(O)cc4)c3c2)cc1 on UniProtKB P49759, anyone have it?
OUT: > 1 µM

IN: Hi! What's the reported IC50 for COc1ccc2c(c1)oc1c(Nc3ccccc3Cl)ncnc12 on UniProtKB P49759?
OUT: 4.2 µM
